assay: NCI Yeast Anticancer Drug Screen. Data for the rad50EPP+ strain (AID 151);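 also: 0% = growth of vehicle-treated control cultures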; settings: S. cerevisiae rad50 mutant strain, at 100.0 µM, hits give high values
This is part of a sample that, as a whole, favours compounds with a hit. Of some 79,000 tested, about 15% had one in any assay.
Given measured growth inhibition, output true (1) if it is greater than or equal to 80% and false (0) if not.

Use the examples below as a reference point.
Cc1cc[n+](C2=C(Nc3cccc(C(F)(F)F)c3)C(=O)c3ccccc3C2=O)cc1: false (0)
CNCC(O)c1ccc(O)c(O)c1.[Pt].c1ccc([PH+](c2ccccc2)c2ccccc2)cc1.c1ccc([PH+](c2ccccc2)c2ccccc2)cc1: true (1)
O=C(O)C1C2C=CC(C2)C1c1ccccc1 (configuration not stated): false (0)

Please turn your attention to the following entry.
Would you say CCCN(CCC)c1c([N+](=O)[O-])cc(S(N)(=O)=O)cc1[N+](=O)[O-] shows growth inhibition at minimum 80%?
false (0)
